Test system: SW-620 colon
Assay: NCI tumour cell line growth inhibition, 48 h

compound: CC(C)=C/C=C1/CS(=O)(=O)C=C1C
measurementUnits: µM
censoringSign: >
TGI: 100
//
compound: CN(C)CCC(/C=C/c1ccccc1)=N\Nc1ccc(Cl)cc1Cl
measurementUnits: µM
censoringSign: =
TGI: 27.9
//
compound: Cc1cccc(NC(=O)c2sc3nc4c(cc3c2N)CN(Cc2ccccc2)CC4)c1C
measurementUnits: µM
censoringSign: >
TGI: 50
//
compound: CC1(C)OC2C(=O)C=C(COCc3ccccc3)C2O1 (stereo unspecified)
measurementUnits: µM
censoringSign: =
TGI: 52.2
//
compound: OC(c1ccc(-c2ccccc2)cc1)C(F)(F)c1nc2ccccc2o1 (stereo unspecified)
measurementUnits: µM
censoringSign: >
TGI: 100
//
compound: CC(=O)Oc1ccccc1C(=O)/C=C/c1cccc([N+](=O)[O-])c1
measurementUnits: µM
censoringSign: =
TGI: 3.9

---

Test system: HCT-116 colon
Outcomes: active, inactive

molecule: O=C1NC(=O)C(c2cccc(Cl)c2)=C1Nc1ccc(O)c(Cl)c1
assignedClass: inactive

molecule: COc1ccc2c(c1)OC1=C(C(=O)OC1)C2c1cc(OC)c2c(c1)OCO2 (stereo not drawn)
assignedClass: active

molecule: O=c1[nH]cnc2c(C3NC(CO)C(O)C3O)c[nH]c12 (stereo not drawn)
assignedClass: inactive

molecule: CN1CCN(CC(O)COc2c(Br)c(Br)c(Br)c3c2OC(C)(C)C3)CC1 (stereo not drawn)
assignedClass: inactive

molecule: CCN1C(=O)N(CC)C2C1NN=c1s/c(=C3\C(=O)N(CCc4ccccc4)c4ccccc43)c(=O)n12 (stereo not drawn)
assignedClass: active

molecule: Cc1c(C2=C(c3cn(C)c4ccccc34)C(=O)NC2=O)c2ccccc2n1C
assignedClass: inactive

molecule: N#Cc1ccc(N=Cc2c([O-])ccc3ccccc23)cc1.[C-]#[O+].[C-]#[O+].[Ir]
assignedClass: inactive

molecule: COc1ccc(OC)c(Cn2cc3c(c2)-c2oncc2CC3)c1
assignedClass: inactive

---

Tested on: HCT-116 colon
Assay: NCI tumour cell line growth inhibition, 48 h

compound: CCOc1ccc(-n2nnc3c(N)nc(N)nc32)cc1
TGI: > 100 µM

compound: Cn1cncc1CC1COC(=O)C1C(O)c1ccccc1 (stereo not drawn)
TGI: > 100 µM

compound: CCOC(=O)c1ccc(C(=O)C(C(C)=O)C(=O)OC(C)(C)C)[nH]1 (stereo not drawn)
TGI: > 100 µM

compound: O=C(Nc1cccc(F)c1)c1cc2ccc(O)cc2oc1=Nc1ccccc1F
TGI: 12.9 µM

compound: CCN(CC)CCNCc1cc(Cl)cc2c1OCOC2
TGI: > 10 µM

compound: Cc1nc2ccccc2c(/C=C/c2ccc(Br)cc2)c1C(=O)/C=C/c1ccccc1
TGI: 2.28 µM

compound: CC1(O)OC(=O)C2=C1CCC1C2CCC2(C)C(O)CCC12 (stereo not drawn)
TGI: > 100 µM

compound: c1ccc(CSCCc2ccncc2)cc1
TGI: > 100 µM

---

Reported values of TGI for individual entries
Tested on: T-47D breast
Test: NCI tumour cell line growth inhibition, 48 h
experimentalEndpoint: TGI

compound: CCN(c1cccc(NC(=S)Nc2ccccc2N(CC)c2cc(-c3ccccc3)no2)c1)c1cc(-c2ccccc2)no1
observed: > 100 µM

compound: Nc1nc(Cl)c(N)c(NCC2(CO)CC(CCCc3ccccc3)C2)n1 (stereo not drawn)
observed: > 100 µM

compound: CC1OC(OC2C(OC(=O)[C@@H]3CC(C)(C)C[C@H]4C5=CC[C@@H]6[C@@]7(C)C[C@H](O)[C@H](OC8OC(CO)C(O)C(O)C8O)[C@@](C)(CO)[C@@H]7[C@H](O)C[C@@]6(C)[C@]5(C)CC[C@@]34C)OCC(O)C2O)C(O)C(O)C1O (stereo partly drawn)
observed: > 7.5 µM

compound: COc1ccc(C(=O)c2[nH]c(Nc3ccc(Cl)cc3)c(C(=S)Nc3ccccc3)c2N)cc1
observed: > 100 µM

compound: CC(C)[C@@H]1ON1C(C)c1ccccc1 (stereo partly drawn)
observed: > 100 µM

compound: COC(=O)c1c(O)ccc2c1C1(Cc3ccccc3C1=O)C(O)O2 (stereo not drawn)
observed: 45.3 µM

compound: CCN1C(=O)N(CC)C2C1NN=c1s/c(=C\c3ccccc3Br)c(=O)n12 (stereo not drawn)
observed: 57.9 µM

compound: COC(=O)C1=C(C)N2[C@H](C(=O)O)CO[C@@]2(C)[C@H](C(=O)OC)[C@H]1c1cccc([N+](=O)[O-])c1
observed: > 100 µM
